# target.or.system: CYCLIN K (Homo sapiens, UniProt O75909)
# Construct: endogenous in cells; host or cells: CAL-120 human breast cancer cells (DSMZ ACC 459)
# Sequence (O75909 whole entry): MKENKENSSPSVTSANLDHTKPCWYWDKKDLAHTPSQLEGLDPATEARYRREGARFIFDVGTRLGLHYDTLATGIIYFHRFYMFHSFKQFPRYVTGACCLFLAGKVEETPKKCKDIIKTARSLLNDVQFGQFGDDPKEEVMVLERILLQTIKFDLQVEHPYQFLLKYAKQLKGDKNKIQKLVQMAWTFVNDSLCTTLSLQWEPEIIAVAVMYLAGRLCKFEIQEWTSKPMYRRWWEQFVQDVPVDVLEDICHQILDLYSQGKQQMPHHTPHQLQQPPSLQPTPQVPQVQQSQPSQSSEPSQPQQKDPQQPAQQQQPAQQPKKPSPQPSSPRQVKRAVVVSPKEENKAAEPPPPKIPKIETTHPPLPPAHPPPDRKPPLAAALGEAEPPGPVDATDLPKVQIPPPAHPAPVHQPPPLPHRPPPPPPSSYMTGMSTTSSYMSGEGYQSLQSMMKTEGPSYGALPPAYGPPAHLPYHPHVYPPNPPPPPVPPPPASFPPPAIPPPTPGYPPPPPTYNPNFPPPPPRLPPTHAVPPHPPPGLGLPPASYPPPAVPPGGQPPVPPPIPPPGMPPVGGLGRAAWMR
# Sequence (Q9NYV4 whole entry partner): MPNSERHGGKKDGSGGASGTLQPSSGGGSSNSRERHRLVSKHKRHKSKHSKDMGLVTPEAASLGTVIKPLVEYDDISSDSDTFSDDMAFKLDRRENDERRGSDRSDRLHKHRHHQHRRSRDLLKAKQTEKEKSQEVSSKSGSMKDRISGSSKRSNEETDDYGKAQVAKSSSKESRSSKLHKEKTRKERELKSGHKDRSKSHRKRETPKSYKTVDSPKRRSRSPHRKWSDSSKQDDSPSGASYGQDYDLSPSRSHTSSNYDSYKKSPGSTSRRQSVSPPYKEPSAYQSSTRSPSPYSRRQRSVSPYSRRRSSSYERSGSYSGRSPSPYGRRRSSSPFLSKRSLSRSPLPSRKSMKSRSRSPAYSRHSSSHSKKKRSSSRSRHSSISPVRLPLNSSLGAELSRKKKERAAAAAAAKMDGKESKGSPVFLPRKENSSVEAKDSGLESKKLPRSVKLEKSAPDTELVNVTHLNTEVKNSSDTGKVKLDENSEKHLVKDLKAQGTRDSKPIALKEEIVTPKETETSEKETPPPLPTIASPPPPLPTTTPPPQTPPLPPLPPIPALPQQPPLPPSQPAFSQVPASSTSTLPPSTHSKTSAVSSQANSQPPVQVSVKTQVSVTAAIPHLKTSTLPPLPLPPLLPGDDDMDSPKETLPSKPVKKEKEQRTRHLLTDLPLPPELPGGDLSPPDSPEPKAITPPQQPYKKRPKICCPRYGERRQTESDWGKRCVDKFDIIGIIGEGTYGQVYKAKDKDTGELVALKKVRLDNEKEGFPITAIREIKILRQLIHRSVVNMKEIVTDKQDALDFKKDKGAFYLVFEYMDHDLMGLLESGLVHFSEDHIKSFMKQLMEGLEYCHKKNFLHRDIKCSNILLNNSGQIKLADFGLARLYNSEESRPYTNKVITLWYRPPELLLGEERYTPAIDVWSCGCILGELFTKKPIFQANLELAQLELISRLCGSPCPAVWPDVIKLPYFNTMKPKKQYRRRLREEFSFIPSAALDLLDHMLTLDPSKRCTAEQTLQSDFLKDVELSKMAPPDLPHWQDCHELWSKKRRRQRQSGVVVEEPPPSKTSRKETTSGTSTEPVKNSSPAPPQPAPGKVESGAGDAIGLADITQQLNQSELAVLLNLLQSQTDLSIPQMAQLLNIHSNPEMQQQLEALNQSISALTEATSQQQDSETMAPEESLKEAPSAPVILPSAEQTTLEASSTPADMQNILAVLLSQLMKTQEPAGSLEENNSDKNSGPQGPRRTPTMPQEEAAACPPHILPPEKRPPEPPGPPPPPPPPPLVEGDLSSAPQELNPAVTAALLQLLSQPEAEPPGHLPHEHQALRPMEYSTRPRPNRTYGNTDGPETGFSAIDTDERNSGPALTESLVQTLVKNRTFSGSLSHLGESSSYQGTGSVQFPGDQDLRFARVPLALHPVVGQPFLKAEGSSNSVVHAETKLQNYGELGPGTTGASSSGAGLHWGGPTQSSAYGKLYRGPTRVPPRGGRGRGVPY
# experimental.details: CYCLIN K nuclear protein level: immunofluorescence/high content analysis in CAL-120 cells
# Assay type: cell-based
# particulars: 24 h, nuclear CCNK staining intensity, median, read-out: CYCLIN K degradation IF, DC50- [mol/l] (median)
measured.metric: DC50

1) COCCC(C)n1nc(NCc2nc3ccccc3[nH]2)c2ncc(C3CC3)nc21 (single isomer, unassigned; (+)) [Example 59]
38.6 nM
2) CC(C)(O)Cn1nc(NCc2nc3ccccc3[nH]2)c2ncc(C3CC3)nc21
34.1 nM
3) O[C@H]1C[C@@H](n2nc(NCc3nc4ccccc4[nH]3)c3ncc(C4CC4)nc32)C1
5.35 nM
4) c1ccc2[nH]c(CNc3nn(C4C[C@H]5CC[C@@H](C4)O5)c4nc(C5CC5)cnc34)nc2c1 (stereo partly drawn)
2.29 nM
5) OC1(Cn2nc(NCc3nc4ccccc4[nH]3)c3ncc(C4CC4)nc32)CCCC1
53.2 nM
6) c1ccc2[nH]c(CNc3nn(C4COC4)c4nc(C5CC5)cnc34)nc2c1
12.5 nM
7) O[C@H]1CC[C@@H](n2nc(NCc3nc4ccccc4[nH]3)c3ncc(C4CC4)nc32)CC1
4.46 nM
8) CC1COCCC1n1nc(NCc2nc3ccccc3[nH]2)c2ncc(C3CC3)nc21 (racemic)
17.2 nM
9) CC(C)(O)CCn1nc(NCc2nc3ccccc3[nH]2)c2ncc(C3CC3)nc21
8.11 nM
10) OCCn1nc(NCc2nc3ccccc3[nH]2)c2ncc(C3CC3)nc21
20.3 nM
11) O[C@H]1CC[C@H](n2nc(NCc3nc4cc(F)ccc4[nH]3)c3ncc(C4CC4)nc32)CC1
1.28 nM
12) CN1CCC(n2nc(NCc3nc4c(OC(F)(F)F)cccc4[nH]3)c3ncc(C4CC4)nc32)CC1
3.46 nM

###

Below, each entry is listed alongside its reported IC50.
# target.or.system: CDK12/CyclinK (Homo sapiens)
# Construct: His-CDK12 (aa Q696-S1082)
# Sequence (Q9NYV4 with tags, fused parts or gaps): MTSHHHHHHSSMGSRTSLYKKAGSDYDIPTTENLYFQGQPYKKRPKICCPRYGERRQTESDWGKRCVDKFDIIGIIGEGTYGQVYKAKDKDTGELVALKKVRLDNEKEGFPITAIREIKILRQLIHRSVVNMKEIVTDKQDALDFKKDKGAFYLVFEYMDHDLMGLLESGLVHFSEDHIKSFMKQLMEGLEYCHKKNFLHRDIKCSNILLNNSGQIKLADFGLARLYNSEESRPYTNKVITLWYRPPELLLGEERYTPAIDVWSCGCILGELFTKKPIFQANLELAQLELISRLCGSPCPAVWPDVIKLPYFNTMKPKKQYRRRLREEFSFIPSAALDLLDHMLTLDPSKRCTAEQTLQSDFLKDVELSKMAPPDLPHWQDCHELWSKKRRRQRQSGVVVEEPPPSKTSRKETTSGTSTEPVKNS
# Sequence (O75909 with tags, fused parts or gaps partner limits assumed): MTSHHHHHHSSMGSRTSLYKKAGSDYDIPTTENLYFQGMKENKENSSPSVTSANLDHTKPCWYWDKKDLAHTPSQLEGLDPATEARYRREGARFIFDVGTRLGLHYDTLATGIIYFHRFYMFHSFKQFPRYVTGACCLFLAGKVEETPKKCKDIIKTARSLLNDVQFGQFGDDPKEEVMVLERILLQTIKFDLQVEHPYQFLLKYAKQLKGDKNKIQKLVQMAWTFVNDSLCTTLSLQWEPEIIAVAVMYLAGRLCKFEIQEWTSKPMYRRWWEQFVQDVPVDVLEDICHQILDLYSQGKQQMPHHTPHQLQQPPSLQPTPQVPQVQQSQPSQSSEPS
# experimental.details: CDK12/CycK high ATP kinase assay (TR-FRET)
# particulars: 2 mM ATP (high ATP); median; read-out: CDK12/CyclinK, 2 mM ATP (high ATP), IC50 - [mol/l] (median)
measured.metric: IC50

1) FC1(F)CCC(n2nc(NCc3nc4ccccc4[nH]3)c3ncc(C4CC4)nc32)CC1
> 20 µM
2) OC[C@H]1C[C@@H](n2nc(NCc3nc4ccccc4[nH]3)c3ncc(C4CC4)nc32)C1
12.8 µM
3) COc1cccc2[nH]c(CNc3nn(C4CCN(C)CC4)c4nc(C5CC5)cnc34)nc12
> 20 µM
4) O[C@H]1C[C@@H](n2nc(NCc3nc4ccccc4[nH]3)c3ncc(C4CC4)nc32)C1
> 20 µM
5) Cc1ccc2[nH]c(CNc3nn(C4CCN(C)CC4)c4nc(C5CC5)cnc34)nc2c1
> 20 µM
6) CC(C)(O)CCn1nc(NCc2nc3ccccc3[nH]2)c2ncc(C3CC3)nc21
> 20 µM
7) CN1CCC(n2nc(NCc3nc4c(OC(F)(F)F)cccc4[nH]3)c3ncc(C4CC4)nc32)CC1
> 20 µM
8) O[C@H]1CC[C@H](n2nc(NCc3nc4cc(F)ccc4[nH]3)c3ncc(C4CC4)nc32)CC1
> 18.1 µM
9) OCCCn1nc(NCc2nc3ccccc3[nH]2)c2ncc(C3CC3)nc21
> 20 µM
10) CN1CCC(n2nc(NCc3nc4cc(F)c(F)cc4[nH]3)c3ncc(C4CC4)nc32)CC1
> 20 µM
11) CN(C)CCn1nc(NCc2nc3ccccc3[nH]2)c2ncc(C3CC3)nc21
> 20 µM
12) CN1CCC(n2nc(NCc3nc4c(C(F)(F)F)cccc4[nH]3)c3ncc(C4CC4)nc32)CC1
> 20 µM
